Sequence of the target: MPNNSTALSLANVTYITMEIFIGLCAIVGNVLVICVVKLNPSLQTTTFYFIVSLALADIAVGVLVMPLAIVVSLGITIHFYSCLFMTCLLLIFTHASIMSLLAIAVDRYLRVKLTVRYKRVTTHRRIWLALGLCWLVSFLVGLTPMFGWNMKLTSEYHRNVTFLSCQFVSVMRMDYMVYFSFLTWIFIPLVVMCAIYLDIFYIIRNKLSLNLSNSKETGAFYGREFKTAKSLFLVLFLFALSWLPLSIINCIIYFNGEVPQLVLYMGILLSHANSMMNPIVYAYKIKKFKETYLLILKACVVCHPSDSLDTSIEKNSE
Compiled Ki measurements on the protein given by its sequence taken from the literature.
MEASURED_PARAMETER: Ki (nM)

[
  {
    "COMPOUND": "CCCn1c(=O)c2nc(-c3cnn(Cc4cc(-c5ccccc5C(F)(F)F)on4)c3)[nH]c2n(CCC)c1=O",
    "Ki / nM": 4200
  }
]

[I] Nc1nc(OCCc2c[nH]c3ccc(F)cc23)nc2c1ncn2[C@@H]1O[C@H](CO)[C@@H](O)[C@H]1O
[II] CCn1nnc([C@H]2O[C@@H](n3cnc4c(N)nc(NC(C)Cc5ccccc5)nc43)[C@H](O)[C@@H]2O)n1 (mixture of isomers)
Query :: Higher Ki: I or II ? Write down the label of the entry you select.
Result :: I
